Tested on: Cryptosporidium parvum
Assay: Antiparasitic activity against Cryptosporidium parvum infected in human HCT-8 cells assessed as parasitic growth inhibition measured for 48 hrs by fluorescence microscopic analysis
Type: functional, organism-based
Details: HCT-8, 48 h
Consider the following compounds; for each one, report its pEC50.
One number for each entry, as −log10 of the molar value.

Answered examples (7):
O=C(Cc1ccc(Cl)c(Cl)c1)N1CCN(c2nc3ccccc3s2)CC1    4.44
O=C(Nc1ccc(Cl)c(Cl)c1)N1CCN(c2ccc3nnc(C(F)(F)F)n3n2)CC1    4.96
O=C(Cc1ccc(Cl)c(Cl)c1)N1CCN(c2ccn3nccc3n2)CC1    4.33
O=C(Cc1ccc(Cl)c(Cl)c1)N1CCN(c2ccc3nnc(C(F)(F)F)n3n2)CC1    4.54
O=C(Cc1ccc(Cl)c(Cl)c1)N1CCN(c2ccc3cn[nH]c3c2)CC1    4.59
O=C(Nc1nc2nc(N3CCN(C(=O)Cc4ccc(Cl)c(Cl)c4)CC3)ccc2s1)c1ccccc1    5.54
O=C(Cc1ccc(Cl)c(Cl)c1)N1CCN(c2ccc(C(F)(F)F)nn2)CC1    4.31

Fill in the blank: the reported pEC50 of `Nc1nc2cc(N3CCN(C(=O)Cc4ccc(Cl)c(Cl)c4)CC3)ccc2s1` is ____.
4.80

* * *

Tested on: Cryptosporidium parvum
Test: Antiparasitic activity against Cryptosporidium parvum infected in human HCT-8 cells assessed as parasitic growth inhibition measured for 48 hrs by fluorescence microscopic analysis
Type: functional, organism-based
Conditions: HCT-8, 48 h
Flag rule - EC50 less than 20 µM flags Y; the remaining entries get N.

O=C(Nc1ccc(Cl)c(Cl)c1)N1CCN(c2nc3ccccc3[nH]2)CC1    Y
CCCCOC(=O)c1cn2nc(N3CCN(C(=O)Cc4ccc(Cl)c(Cl)c4)CC3)ccc2n1    N
CN(C)C(=O)c1cn2nc(N3CCN(C(=O)Cc4ccc(Cl)c(Cl)c4)CC3)ccc2n1    N
O=C(Cc1ccc(Cl)c(Cl)c1)N1CCN(c2ccc3nnc(Cl)n3n2)CC1    N

Determine whether this molecule shows EC50 lower than 20 µM (ties excluded): `CC(C)(C)OC(=O)N1CCN(C(=O)Cc2ccc(Cl)c(Cl)c2)CC1`
N

Likewise for `Cc1nnc2ccc(N3CCN(C(=O)Nc4ccc(Cl)c(Cl)c4)CC3)nn12` ?
N

// next record `O=C(Nc1ccc(Cl)c(Cl)c1)N1CCN(C2=Nn3cnnc3CC2)CC1`
Y

* * *

Experiment: Dissociation constant, pKa of compound
Type: physicochemical
PROPERTY_LABEL: pKa
Answers are plain numbers.

Illustrative cases are given below, each with its answer.
O=C(Nc1ccc(Cl)c(Cl)c1)N1CCN(c2ccc3nncn3n2)CC1    5.9
Nc1nc2nc(N3CCN(C(=O)Cc4ccc(Cl)c(Cl)c4)CC3)ccc2s1    5.9
O=C(Cc1ccc(Cl)c(Cl)c1)N1CCN(c2ccc3nncn3n2)CC1    5.9
O=C(Cc1ccc(Cl)c(Cl)c1)N1CCN(C2=Nn3cnnc3CC2)CC1    4.4
O=C(Nc1ccc(Cl)c(Cl)c1)N1CCN(c2ccc3nccn3n2)CC1    6.4

Please go through the list and note pKa for each molecule.
1. O=C(Cc1ccc(Cl)c(Cl)c1)N1CCN(c2ccc3nnc(-c4ccnc(C(F)(F)F)c4)n3n2)CC1
2. O=C(Cc1ccc(Cl)c(Cl)c1)N1CCN(c2ccc3nn(Cc4ccccc4)cc3n2)CC1
3. O=C(Nc1nc2nc(N3CCN(C(=O)Cc4ccc(Cl)c(Cl)c4)CC3)ccc2s1)c1ccccc1
4. O=C(Cc1ccc(Cl)c(Cl)c1)N1CCN(c2ccccc2)CC1

1. 6
2. 6.2
3. 7.7
4. 3

* * *

System: Cryptosporidium parvum
Test: Antiparasitic activity against Cryptosporidium parvum infected in human HCT-8 cells assessed as parasitic growth inhibition measured for 48 hrs by fluorescence microscopic analysis
Type: functional, organism-based
Settings: HCT-8, 48 h
PROPERTY_LABEL: EC50 (µM)
Give bare numbers, in µM.

Examples from the recorded data:
Cc1nnc2ccc(N3CCN(C(=O)Cc4ccc(Cl)c(Cl)c4)CC3)nn12    30
O=C(Cc1ccc(Cl)c(Cl)c1)N1CCN(c2ccc3nnc(-c4ccccc4)n3n2)CC1    15
O=C(Cc1ccc(Cl)c(Cl)c1)N1CCN(c2ccc3nnc(Cc4ccccc4)n3n2)CC1    16

Parameters: items (list). Returns: EC50 for each item.
1. O=C(Cc1ccc(Cl)c(Cl)c1)N1CCN(c2ccc3nnc(-c4ccnc(C(F)(F)F)c4)n3n2)CC1
2. O=C(Nc1ccc(Cl)c(Cl)c1)N1CCN(c2ccccc2)CC1
3. Cc1cc(N2CCN(C(=O)Nc3ccc(Cl)c(Cl)c3)CC2)nn2cnnc12
4. Cc1nc2nc(N3CCN(C(=O)Cc4ccc(Cl)c(Cl)c4)CC3)ccc2s1
5. O=C(Cc1ccc(Cl)c(Cl)c1)N1CCN(c2ccc3nccn3n2)CC1

1: 6.1; 2: 20; 3: 24; 4: 18; 5: 63

* * *

Tested on: Cryptosporidium parvum
Assay: Antiparasitic activity against Cryptosporidium parvum infected in human HCT-8 cells assessed as parasitic growth inhibition measured for 48 hrs by fluorescence microscopic analysis
Assay type: functional, organism-based
Details: HCT-8, 48 h
For each record, write down the corresponding pEC50.
Answers are plain numbers, as −log10 of the molar value.

Cc1cccc(N2CCN(C(=O)Cc3ccc(Cl)c(Cl)c3)CC2)n1    4.44
O=C(Cc1ccc(Cl)c(Cl)c1)N1CCN(c2ncc([N+](=O)[O-])s2)CC1    4.70

Return reported pEC50 values for all items listed beneath this line.
1. CCOC(=O)c1cn2nc(N3CCN(C(=O)Cc4ccc(Cl)c(Cl)c4)CC3)ccc2n1
2. O=C(Cc1ccc(Cl)c(Cl)c1)N1CCN(c2cc3ccncc3cn2)CC1
3. Cc1cc(N2CCN(C(=O)Cc3ccc(Cl)c(Cl)c3)CC2)nn2cnnc12
4. O=C(Cc1ccc(Cl)c(Cl)c1)N1CCN(c2ccc3c(cnn3Cc3ccccc3)n2)CC1
5. O=C(Cc1ccc(Cl)c(Cl)c1)N1CCN(c2ccc3nonc3c2)CC1

[4.24, 4.30, 4.21, 4.35, 4.62]

* * *

System: Cryptosporidium parvum
Experiment: Antiparasitic activity against Cryptosporidium parvum infected in human HCT-8 cells assessed as parasitic growth inhibition measured for 48 hrs by fluorescence microscopic analysis
Type: functional, organism-based
Settings: HCT-8, 48 h
I'd appreciate it if you could supply EC50 values for the items below.

Field: example entries. Status: answers known.
Cc1cc2nncn2nc1N1CCN(C(=O)Cc2ccc(Cl)c(Cl)c2)CC1    23 µM
O=C(Nc1ccc(Cl)c(Cl)c1)N1CCN(c2ccc3nnc(Cl)n3n2)CC1    12 µM
O=C(O)c1cn2nc(N3CCN(C(=O)Cc4ccc(Cl)c(Cl)c4)CC3)ccc2n1    > 50 µM
O=C(Cc1ccc(Cl)c(Cl)c1)N1CCN(c2ccc3ncccc3n2)CC1    38 µM

// for each molecule in input: emit EC50
1. O=C(Cc1ccc(Cl)c(Cl)c1)N1CCN(c2ccccn2)CC1
2. O=C(Cc1ccc(Cl)c(Cl)c1)N1CCN(c2ccc3nnc(N4CCOCC4)n3n2)CC1

1. > 50 µM
2. 48 µM

For each entry beneath this line, provide reported EC50.
1. O=C(Cc1ccc(Cl)c(Cl)c1)N1CCN(c2ncccn2)CC1
2. O=C(Cc1ccc(Cl)c(Cl)c1)N1CCN(c2nccc(C(F)(F)F)n2)CC1
3. COc1ccc(N2CCN(C(=O)Cc3ccc(Cl)c(Cl)c3)CC2)nn1

> 50 µM
> 50 µM
57 µM

Hi, could you look up EC50 for each item in my list?
1. O=C(Cc1ccc(Cl)c(Cl)c1)N1CCN(c2ccc3nnc(-c4ccncc4)n3n2)CC1
2. O=C(Cc1ccc(Cl)c(Cl)c1)N1CCN(c2ccc3cc[nH]c3n2)CC1
3. CC(=O)Oc1ccccc1C(=O)Nc1ncc([N+](=O)[O-])s1 [NITAZOXANIDE]
4. O=C(Cc1ccc(Cl)c(Cl)c1)N1CCN(c2ccc3nc[nH]c3c2)CC1
5. O=C(Cc1ccc(Cl)c(Cl)c1)N1CCNCC1
6. O=C(Nc1nc2cc(N3CCN(C(=O)Cc4ccc(Cl)c(Cl)c4)CC3)ccc2s1)c1ccccc1

> 50 µM
30 µM
3.7 µM
20 µM
> 50 µM
93 µM

Dear colleague, could you send me EC50 for each of the items below? Thanks.
1. Nc1nnc2ccc(N3CCN(C(=O)Cc4ccc(Cl)c(Cl)c4)CC3)nn12
2. Cc1nccc(N2CCN(C(=O)Cc3ccc(Cl)c(Cl)c3)CC2)n1
3. O=C(Cc1ccc(Cl)c(Cl)c1)N1CCN(c2ccc3nn(Cc4ccccc4)cc3n2)CC1
4. O=C(Cc1ccc(Cl)c(Cl)c1)N1CCN(C2=Nn3cnnc3CC2)CC1
5. O=C(Cc1ccc(Cl)c(Cl)c1)N1CCN(c2ccc3ccccc3n2)CC1
6. O=C(Nc1ccc(Cl)c(Cl)c1)N1CCN(c2ccc3nccn3n2)CC1
7. Cn1ncc2nc(N3CCN(C(=O)Cc4ccc(Cl)c(Cl)c4)CC3)ccc21
8. O=C(Nc1nc2nc(N3CCN(C(=O)Cc4ccc(Cl)c(Cl)c4)CC3)ccc2s1)c1ccncc1

65 µM
> 50 µM
7.8 µM
1.2 µM
46 µM
16 µM
> 50 µM
7.3 µM

Each molecule below has a reported value. Please supply its EC50.
1. O=C(Cc1ccc(Cl)c(Cl)c1)N1CCN(c2ccccc2)CC1
2. Cc1nc2cc(N3CCN(C(=O)Cc4ccc(Cl)c(Cl)c4)CC3)ccc2s1

1. 42 µM
2. 14 µM
